Task for the reader: assign each of the following compounds its reported MIC90.
# Test system: Mycobacterium tuberculosis variant bovis
# measurement-protocol: Antitubercular activity against Mycobacterium bovis BCG measured after 10 days by liquid broth microdilution assay
# Assay type: functional
# assay-conditions: 240 h, time 10 day
Write the number in µg/mL without appending the unit.

Missing value: MIC90, Mycobacterium tuberculosis variant bovis, entry O=C(CSc1nc2ccc(OC(F)(F)F)cc2s1)NC1CCCCC1 . Fill in? 128

Missing value: MIC90, Mycobacterium tuberculosis variant bovis, entry CC(C)c1ccc2nc(SCC(=O)NC3CCCCC3)sc2c1 . Fill in? 4

Missing value: MIC90, Mycobacterium tuberculosis variant bovis, entry O=C(CSc1nc2ccc(Cl)cc2s1)NC1CCCCC1 . Fill in? 64

Missing value: MIC90, Mycobacterium tuberculosis variant bovis, entry NNC(=O)c1ccncc1 . Fill in? 0.06

Missing value: MIC90, Mycobacterium tuberculosis variant bovis, entry O=C(CSc1nc2ccccc2s1)NC1CCCCC1 . Fill in? 64

Missing value: MIC90, Mycobacterium tuberculosis variant bovis, entry O=C(CSc1nc2ccc(F)cc2s1)NC1CCCCC1 . Fill in? 8

Missing value: MIC90, Mycobacterium tuberculosis variant bovis, entry O=C(CSc1nc2c(Br)cc(F)cc2s1)NC1CCCCC1 . Fill in? 4

Missing value: MIC90, Mycobacterium tuberculosis variant bovis, entry CO[C@H]1/C=C/O[C@@]2(C)Oc3c(C)c(O)c4c(O)c(c(/C=N/N5CCN(C)CC5)c(O)c4c3C2=O)NC(=O)/C(C)=C\C=C\[C@H](C)[C@H](O)[C@@H](C)[C@@H](O)[C@@H](C)[C@H](OC(C)=O)[C@@H]1C . Fill in? 0.03

Missing value: MIC90, Mycobacterium tuberculosis variant bovis, entry CC(C)/N=c1\cc2n(-c3ccc(Cl)cc3)c3ccccc3nc-2cc1Nc1ccc(Cl)cc1 . Fill in? 0.25

Missing value: MIC90, Mycobacterium tuberculosis variant bovis, entry Cc1cc(C)c2nc(SCC(=O)NC3CCCCC3)sc2c1 . Fill in? 4

Missing value: MIC90, Mycobacterium tuberculosis variant bovis, entry O=C(CSc1nc2ccc([N+](=O)[O-])cc2s1)NC1CCCCC1 . Fill in? 32

Missing value: MIC90, Mycobacterium tuberculosis variant bovis, entry Cc1ccc2nc(SCC(=O)NC3CCCCC3)sc2c1 . Fill in? 16

Missing value: MIC90, Mycobacterium tuberculosis variant bovis, entry O=C(CSc1nc2ccc(C(F)(F)F)cc2s1)NC1CCCCC1 . Fill in? 128

Missing value: MIC90, Mycobacterium tuberculosis variant bovis, entry O=C(CSc1nc2c(Br)cc(C(F)(F)F)cc2s1)NC1CCCCC1 . Fill in? 64

Missing value: MIC90, Mycobacterium tuberculosis variant bovis, entry O=C(CSc1nc2ccc(Br)cc2s1)NC1CCCCC1 . Fill in? 128

Missing value: MIC90, Mycobacterium tuberculosis variant bovis, entry O=C(CSc1nc2c(Br)cc(OC(F)(F)F)cc2s1)NC1CCCCC1 . Fill in? 128

Missing value: MIC90, Mycobacterium tuberculosis variant bovis, entry O=C(CSc1nc2c(ccc3ccccc32)s1)NC1CCCCC1 . Fill in? 64

Missing value: MIC90, Mycobacterium tuberculosis variant bovis, entry O=C(CSc1nc2ccccc2c(=O)[nH]1)NC1CCCCC1 . Fill in? 1

---

# Test system: Mycobacterium tuberculosis variant bovis
# measurement-protocol: Antitubercular activity against Mycobacterium bovis BCG assessed as inhibition of intracellular ATP synthesis incubated for 24 hrs by BacTiter-Glo microbial cell viability assay
# Format: functional, organism-based
attribute-measured: IC50 (µg/mL)
Write the number in µg/mL without appending the unit.

I'd like to know its IC50. The compound in question is O=C(CSc1nc2ccc(F)cc2s1)NC1CCCCC1 19.7

I'd like to know its IC50. The compound in question is O=C(CSc1nc2c(Br)cc(F)cc2s1)NC1CCCCC1 13.5

I'd like to know its IC50. The compound in question is O=C(CSc1nc2c(Br)cc(OC(F)(F)F)cc2s1)NC1CCCCC1 40.8

I'd like to know its IC50. The compound in question is O=C(CSc1nc2ccc(Cl)cc2s1)NC1CCCCC1 32.9

I'd like to know its IC50. The compound in question is O=C(CSc1nc2ccccc2s1)NC1CCCCC1 33.2

I'd like to know its IC50. The compound in question is O=C(CSc1nc2ccc([N+](=O)[O-])cc2s1)NC1CCCCC1 34.4

I'd like to know its IC50. The compound in question is O=C(CSc1nc2ccc(Br)cc2s1)NC1CCCCC1 31.8

I'd like to know its IC50. The compound in question is CC(C)c1ccc2nc(SCC(=O)NC3CCCCC3)sc2c1 9.89

I'd like to know its IC50. The compound in question is O=C(CSc1nc2ccc(OC(F)(F)F)cc2s1)NC1CCCCC1 30.4

I'd like to know its IC50. The compound in question is O=C(CSc1nc2ccccc2c(=O)[nH]1)NC1CCCCC1 4.99

I'd like to know its IC50. The compound in question is O=C(CSc1nc2ccc(C(F)(F)F)cc2s1)NC1CCCCC1 19.7

I'd like to know its IC50. The compound in question is O=C(CSc1nc2c(ccc3ccccc32)s1)NC1CCCCC1 38

I'd like to know its IC50. The compound in question is O=C(CSc1nc2c(Br)cc(C(F)(F)F)cc2s1)NC1CCCCC1 39.8

I'd like to know its IC50. The compound in question is Cc1cc(C)c2nc(SCC(=O)NC3CCCCC3)sc2c1 13.4

I'd like to know its IC50. The compound in question is Cc1ccc2nc(SCC(=O)NC3CCCCC3)sc2c1 14.4
